Test system: control sera (pooled serum of ten healthy LUMC hospital workers; commercial negative donor pooled serum from the Dutch bloodbank)
Assay type: binding, human
Parameters: unit not given here
We begin with a simple list: items and their reported Binding of Control Serum Blood-Bank to Looped peptides.
// no unit string in output, number only

Field: example entries. Status: answers known.
AFLAVFQSATKIIAL : 0.7
ANKEGIVWVATEGAL : 0.5

Task: Please report the recorded Binding of Control Serum Blood-Bank to Looped peptides for GTTVLLKEPCPSGTY .
Result: 0.7

Task: Would you kindly repeat that for LKEPCPSGTYEGNSP ?
Result: 0.5

* * *

Test system: rabbit serum obtained by immunizing a rabbit with the SARS-CoV strain Frankfurt 1
Format: binding
Design: unit not given here
Below, each entry is listed with its recorded Binding of a rabbit serum to linear peptides.
The answer should be written as a number, with no unit following it.

Task: Tell me reported Binding of a rabbit serum to linear peptides for LYDANYFVCWHTHNY , tested with rabbit serum obtained by immunizing a rabbit with the SARS-CoV strain Frankfurt 1.
Result: 0.1

Task: Try this sequence next: AMDPIYDEPTTTTSV
Result: 0.1

Task: Field entry: LRIGTQVLKTMSLYM
Result: 0.4

Task: Then this sequence: TQSTALQELLIQQWI
Result: 0.3

Task: Queued: PAMDPIYDEPTTTTS
Result: 0.1

Task: For TLGSITAQPVKIDNA then?
Result: 0.8

Task: Now try DANYFVCWHTHNYDY .
Result: 0.1

Task: # repeat for FIFNKLVKDPPNVQI
Result: 0.1

Task: Quick one: LYALIYFLQCINACR
Result: 0.2

Task: Follow-up item: VVILRIGTQVLKTMS
Result: 0.4

Task: Thanks! And ENATFFIFNKLVKDP ?
Result: 0.1

Task: Also QQWIQFMMSRRRLLA ?
Result: 0.8

Task: Can you check FTLGSITAQPVKIDN next?
Result: 0.7

Task: Next entry: EGDGISTPKLKEDYQ
Result: 0.1

Task: Moving on to VKDPPNVQIHTIDGS
Result: 0.1

Task: Further, for KRWQLALYKGFQFIC ?
Result: 0.1

Task: Follow-up item: NKLVKDPPNVQIHTI
Result: 0.1

* * *

Each entry below lists one item and its recorded Binding of serum 1a to looped/cyclic peptides of protein N of SARS-CoV Urbani value.
Test system: antibodies in sera from SARS patients (sera 1a, 1b, 2, 6, 37, 62, London, SARS-yellow, SARS-green)
Format: binding, human
Set-up: unit not given here
No unit in the answer, please; the number alone is enough.

Examples with answers:
GSSRGNSPARMASGG : 0.4
VWVATEGALNTPKDH : 0.3
QQQGQTVTKKSAAEA : 0.5
QLESKVSGKGQQQQG : 0.5
GRNGARPKQRRPQGL : 0.2
LLNKHIDAYKTFPPT : 0.3
ILLNKHIDAYKTFPP : 0.4
NPNNNAATVLQLPQG : 0.4

Task: So what does the record say about Binding of serum 1a to looped/cyclic peptides of protein N of SARS-CoV Urbani for SGTWLTYHGAIKLDD ?
Result: 0.8

Task: Follow-up item: KTDEAQPLPQRQKKQ
Result: 0.3

Task: Also NFGDQDLIRQGTDYK , if possible.
Result: 0.2

Task: Cool, now FGMSRIGMEVTPSGT
Result: 0.3

Task: Next sequence: LPYGANKEGIVWVAT
Result: 0.5

Task: Record: MSDNGPQSNQRSAPR
Result: 0.2

Task: Another sequence to check: DNNQNGGRNGARPKQ
Result: 0.4
